Recorded pIC50 by entry
Target: UniProt:P18031
Sequence (P18031 1-435): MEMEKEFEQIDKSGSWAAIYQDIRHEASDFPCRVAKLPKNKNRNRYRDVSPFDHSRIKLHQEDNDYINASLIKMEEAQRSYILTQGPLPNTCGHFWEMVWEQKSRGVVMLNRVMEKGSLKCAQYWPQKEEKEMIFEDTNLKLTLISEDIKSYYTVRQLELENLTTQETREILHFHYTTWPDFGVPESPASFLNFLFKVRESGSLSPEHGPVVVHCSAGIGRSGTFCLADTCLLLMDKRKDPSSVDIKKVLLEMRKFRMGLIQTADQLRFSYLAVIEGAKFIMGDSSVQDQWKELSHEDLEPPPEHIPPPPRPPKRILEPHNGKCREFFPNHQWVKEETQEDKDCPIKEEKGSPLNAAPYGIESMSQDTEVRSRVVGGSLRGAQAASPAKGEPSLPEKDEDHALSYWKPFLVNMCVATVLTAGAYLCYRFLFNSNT
pIC50: −log10 of the molar value.
Quantity Kind: pIC50

1) O=C1CN(c2c(O)ccc(C(=O)NC3CNC3)c2F)S(=O)(=O)N1 :: < 6.00
2) CC(OC(=O)C(C)C)OC(=O)N1CC(c2ccc(O)c(N3CC(=O)NS3(=O)=O)c2F)=C[C@H]1CCC1CCC1 (stereo partly shown) :: ≥ 6.00
3) CC(C)CC[C@H]1C=C(c2ccc(O)c(N3CC(=O)NS3(=O)=O)c2F)CN1C(=O)O[C@@H](C)OC(=O)C1CCCC1 :: ≥ 6.00
4) O=C1CN(c2c(O)ccc(C3=CC(CCCC(F)F)NC3)c2F)S(=O)(=O)N1 (stereo not shown) :: ≥ 6.00

====

Sequence of the target: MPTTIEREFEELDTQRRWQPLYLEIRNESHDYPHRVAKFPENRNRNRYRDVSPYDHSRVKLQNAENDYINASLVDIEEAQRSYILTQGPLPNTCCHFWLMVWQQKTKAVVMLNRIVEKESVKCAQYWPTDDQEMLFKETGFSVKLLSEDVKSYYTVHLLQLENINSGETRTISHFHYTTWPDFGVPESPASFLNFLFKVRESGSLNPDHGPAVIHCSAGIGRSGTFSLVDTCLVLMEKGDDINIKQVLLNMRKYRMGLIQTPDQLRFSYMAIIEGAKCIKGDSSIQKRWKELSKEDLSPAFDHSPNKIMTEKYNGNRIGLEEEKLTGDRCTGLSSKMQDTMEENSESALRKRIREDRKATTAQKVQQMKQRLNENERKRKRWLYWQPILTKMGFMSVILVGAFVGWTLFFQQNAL
pIC50: −log10 of the molar value.
Reported pIC50 values for the following compounds.
Quantity Kind: pIC50

1) NC1CCCC1c1ccc(O)c(N2CC(=O)NS2(=O)=O)c1F (centres unmarked) [Compound 112] :: < 6.00
2) O=C1CN(c2c(O)ccc(C3=CC(CC4CCC4)NC3)c2F)S(=O)(=O)N1 (centres unmarked) [Compound 126] :: ≥ 6.00
3) O=C1CN(c2c(O)ccc(C3=CC(CO)CC3)c2F)S(=O)(=O)N1 (centres unmarked) [Compound 131] :: ≥ 6.00
4) CC(C)CC[C@H]1C=C(c2ccc(O)c(N3CC(=O)NS3(=O)=O)c2F)CN1C(=O)OC(OC(=O)[C@@H](N)C(C)C)C(C)C (some centres unmarked) [Compound 162] :: ≥ 6.00
5) O=C1CN(c2c(O)ccc(C3=C[C@@H](CCC4CCC4)NC3)c2F)S(=O)(=O)N1 [Compound 116] :: ≥ 6.00
6) O=C1CN(c2c(O)cc(C3=CCNC3)cc2F)S(=O)(=O)N1 [Compound 128] :: ≥ 6.00
7) CC(C)C(=O)O[C@@H](C)OC(=O)N1CC(c2ccc(O)c(N3CC(=O)NS3(=O)=O)c2F)=C[C@@H]1CCC1CC1 [Compound 151] :: ≥ 6.00
8) CC1CC1C1C=C(c2ccc(O)c(N3CC(=O)NS3(=O)=O)c2F)CN1 (centres unmarked) [Compound 117] :: ≥ 6.00
9) CCC[C@@H]1C=C(c2ccc(O)c(N3CC(=O)NS3(=O)=O)c2F)CN1 [Compound 114] :: ≥ 6.00
10) CC(OC(=O)C(C)C)OC(=O)N1CC(c2ccc(O)c(N3CC(=O)NS3(=O)=O)c2F)=C[C@H]1CCC1CC1 (mixture of isomers) [Compound 111] :: ≥ 6.00
11) O=C1CN(c2c(O)ccc(C3=CC(CCC4CCCC4)NC3)c2F)S(=O)(=O)N1 (centres unmarked) [Compound 101] :: ≥ 6.00
12) O=C1CN(c2c(O)cc(C3=CCCNC3)cc2F)S(=O)(=O)N1 [Compound 132] :: ≥ 6.00
13) O=C1CN(c2c(O)ccc(OC3CCNC3)c2F)S(=O)(=O)N1 (centres unmarked) [Compound 142] :: < 6.00
14) CC(OC(=O)C1CCCC1)OC(=O)N1CC(c2ccc(O)c(N3CC(=O)NS3(=O)=O)c2F)=C[C@H]1CCC1CCC1 (some centres unmarked) [Compound 163] :: ≥ 6.00
15) CC(C)CC[C@H]1C=C(c2ccc(O)c(N3CC(=O)NS3(=O)=O)c2F)CN1 [Compound 145] :: ≥ 6.00
16) CC(C)CC[C@H]1C=C(c2ccc(O)c(N3CC(=O)NS3(=O)=O)c2F)CN1C(=O)OC(OC(=O)[C@H](N)C(C)C)C(C)C (some centres unmarked) [Compound 146] :: ≥ 6.00
17) O=C1CN(c2c(O)ccc(CC3CCNC3)c2F)S(=O)(=O)N1 (centres unmarked) [Compound 141] :: ≥ 6.00
18) CC(C)(C)CC[C@@H]1C=C(c2ccc(O)c(N3CC(=O)NS3(=O)=O)c2F)CN1 [Compound 110] :: ≥ 6.00
19) CCC[C@H]1C=C(c2ccc(O)c(N3CC(=O)NS3(=O)=O)c2F)CN1 [Compound 129] :: ≥ 6.00
20) CC(C)[C@@H](N)C(=O)NCC(=O)N1CC(c2ccc(O)c(N3CC(=O)NS3(=O)=O)c2F)=C[C@H]1CCC1CCC1 [Compound 149] :: ≥ 6.00
21) O=C1CN(c2c(O)ccc(C(=O)NC3CNC3)c2F)S(=O)(=O)N1 [Compound 124] :: < 6.00
22) O=C1CN(c2c(O)ccc(C(=O)NC3CCNC3)c2F)S(=O)(=O)N1 (centres unmarked) [Compound 136] :: < 6.00
23) CC1=C(c2ccc(O)c(N3CC(=O)NS3(=O)=O)c2F)CNC1C (centres unmarked) [Compound 118] :: < 6.00
24) CC(C)CC[C@H]1C=C(c2ccc(O)c(N3CC(=O)NS3(=O)=O)c2F)CN1C(=O)OC(C)OC(=O)C(C)C (some centres unmarked) [Compound 165] :: ≥ 6.00
25) CC(OC(=O)C(C)C)OC(=O)N1CC(c2ccc(O)c(N3CC(=O)NS3(=O)=O)c2F)=C[C@H]1CCC1CCC1 (some centres unmarked) [Compound 156] :: ≥ 6.00
26) CC(C)CC[C@H]1C=C(c2ccc(O)c(N3CC(=O)NS3(=O)=O)c2F)CN1C(=O)OC(C)OC(=O)C1CCCC1 (some centres unmarked) [Compound 153] :: < 6.00
